I'd appreciate it if you could supply pIC50 values for the items below.
- tested-target: testosterone 5α-reductase
- assay: Inhibitory activity on testosterone 5α-reductase in rats (prostatic testosterone 5α-reductase assay)
- assay-conditions: rat ventral prostate suspension; 2.2×10^-9 M 1,2,6,7-^3H-testosterone/testosterone; 50 μM NADPH; pH 6.5; 37° C., 30 minutes
Structures can show the parent of a compound that is named as a salt.
One number for each entry, as −log10 of the molar value.

Answered cases to consult:
> print(dat)
                                   molecule  observable  recorded.measurement
1  CC(C)Cc1ccc(C(C)Oc2ccc(C(=O)c3cn(CCCC(=O)O)c4ccccc34)cc2)cc1 (centres unmarked)       pIC50                  8.51
2  CC(C)Cc1ccc(CNc2cc(NCc3ccc(CC(C)C)cc3)cc(C(=O)c3cn(CCCC(=O)O)c4ccccc34)c2)cc1 [(7), dihydrochloride]       pIC50                  8.43
3  CC(C)Cc1ccc(C(Oc2ccc(C(=O)c3cn(CCCC(=O)O)c4ccccc34)cc2)c2ccc(CC(C)C)cc2)cc1       pIC50                  8.46
4  CCCCC(Oc1ccc(C(=O)c2cn(CCCC(=O)O)c3ccccc23)cc1)c1ccc(CC(C)C)cc1 (centres unmarked)       pIC50                  9.18
5  Cc1c(C(=O)c2cccc(NC(c3ccc(CC(C)C)cc3)c3ccc(CC(C)C)cc3)c2)c2ccccc2n1CCCC(=O)O       pIC50                  8.07
6  CC(C)Cc1ccc(C(Nc2cccc(C(=O)c3cn(CCCC(=O)O)c4ccccc34)c2)c2ccc(CC(C)C)cc2)cc1       pIC50                  8.26
7  O=C(O)CCCn1cc(C(=O)c2cccc(CN3c4ccccc4CCc4ccccc43)c2)c2ccccc21       pIC50                  9.03

Now look at this one.
Inquiry: Reported pIC50 for CC(C)Cc1ccc(C(Cc2cccc(C(=O)c3cn(CCCC(=O)O)c4ccccc34)c2)c2ccc(CC(C)C)cc2)cc1 : what is it?
Reply text: 8.13
